# measured-on: vanilloid receptor (VR1) (Homo sapiens)
# Construct: expressed in transfected cells; host or cells: CHO K1 cells (ECACC), stably transfected
# measurement-description: FLIPR Ca2+ influx assay on CHO K1 cells transfected with the VR1 gene (pharmacological method II)
# Type: cell-based
# measurement-parameters: table 4; capsaicin; read-out: Ki (human) Cap.
pKi: −log10 of the molar value.
Outcome: satisfied for pKi of at least 9; not satisfied for anything lower.

hey, is pKi for this one >= 9? C[C@@H](C(=O)NCc1ccc(C(F)(F)F)nc1-c1ccc(F)c(Cl)c1)c1ccc(NS(C)(=O)=O)c(F)c1
not satisfied

hey, is pKi for this one >= 9? CC(C(=O)NCc1ccc(C(F)(F)F)nc1N1CCCCC1C)c1ccc(NS(C)(=O)=O)c(F)c1 (stereo not shown)
not satisfied

hey, is pKi for this one >= 9? CCCCCCOc1nc(C(F)(F)F)ccc1CNC(=O)[C@@H](C)c1ccc(NS(C)(=O)=O)c(F)c1
satisfied

hey, is pKi for this one >= 9? CC(C(=O)NCc1ccc(C(F)(F)F)nc1NC1CCCCC1)c1ccc(NS(C)(=O)=O)c(F)c1 (stereo not shown)
not satisfied

====

# measured-on: vanilloid receptor 1 (VR1/TRPV1) of the rat species (Rattus norvegicus)
# Construct: The spinal column is removed from decapitated rats; from tissue; host or cells: primary cells dissociated from rat dorsal root ganglia
# Sequence (O35433 whole entry): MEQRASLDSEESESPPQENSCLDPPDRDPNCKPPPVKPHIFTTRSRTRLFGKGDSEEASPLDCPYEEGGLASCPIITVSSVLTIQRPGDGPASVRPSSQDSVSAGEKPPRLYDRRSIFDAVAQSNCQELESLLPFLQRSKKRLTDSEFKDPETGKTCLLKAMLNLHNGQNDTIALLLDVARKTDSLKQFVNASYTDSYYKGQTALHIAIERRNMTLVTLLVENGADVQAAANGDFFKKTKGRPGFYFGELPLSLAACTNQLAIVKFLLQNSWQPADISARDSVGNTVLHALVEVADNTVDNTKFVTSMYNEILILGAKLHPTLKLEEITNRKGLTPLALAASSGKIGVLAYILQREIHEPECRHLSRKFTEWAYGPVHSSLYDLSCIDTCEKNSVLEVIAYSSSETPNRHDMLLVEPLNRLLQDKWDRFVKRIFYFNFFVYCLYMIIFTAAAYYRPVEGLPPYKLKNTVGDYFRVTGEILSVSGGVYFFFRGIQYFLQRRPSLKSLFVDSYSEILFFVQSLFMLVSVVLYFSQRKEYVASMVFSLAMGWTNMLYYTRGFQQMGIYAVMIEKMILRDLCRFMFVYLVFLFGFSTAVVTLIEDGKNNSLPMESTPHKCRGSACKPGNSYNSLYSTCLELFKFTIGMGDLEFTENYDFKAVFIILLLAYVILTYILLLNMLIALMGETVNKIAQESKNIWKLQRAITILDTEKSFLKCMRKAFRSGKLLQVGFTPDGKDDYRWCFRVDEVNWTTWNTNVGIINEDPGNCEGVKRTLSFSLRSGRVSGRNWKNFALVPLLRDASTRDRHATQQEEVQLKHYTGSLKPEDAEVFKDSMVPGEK
# measurement-description: FLIPR Ca2+ influx assay on rat dorsal root ganglia cells (pharmacological method I)
# Format: cell-based
# measurement-parameters: table 4; capsaicin; read-out: Ki (rat) Cap.
Task for the reader: assign each of the following compounds its reported log10 of Ki.
Values below are the log10 of the recorded Ki, with nM as the unit.

GET /values?readout=log10 of Ki&item= CC(C(=O)NCc1ccc(C(F)(F)F)nc1N(C)C)c1ccc(NS(C)(=O)=O)c(F)c1 (centres unmarked) [Example 85]
1.83

GET /values?readout=log10 of Ki&item= CC(C(=O)NCc1ccc(C(F)(F)F)nc1N1CCC(F)CC1)c1ccc(NS(C)(=O)=O)c(F)c1 (centres unmarked) [Example 138]
0.08

GET /values?readout=log10 of Ki&item= CCCN(CCC)c1cc(C(F)(F)F)ccc1CNC(=O)C(C)c1ccc(NS(C)(=O)=O)c(F)c1 (centres unmarked) [Example 37]
0.26

GET /values?readout=log10 of Ki&item= CC(C(=O)NCc1ccc(C(F)(F)F)nc1-c1ccc(F)cc1)c1ccc(NS(C)(=O)=O)c(F)c1 (centres unmarked) [Example 89]
0.08

GET /values?readout=log10 of Ki&item= CC(C(=O)NCc1ccc(C(F)(F)F)nc1N1CCN(c2ccccn2)CC1)c1ccc(NS(C)(=O)=O)c(F)c1 (centres unmarked) [Example 214]
0.18

GET /values?readout=log10 of Ki&item= COc1ccc(-c2nc(C(F)(F)F)ccc2CNC(=O)C(C)c2ccc(NS(C)(=O)=O)c(F)c2)cc1 (centres unmarked) [Example 151]
0.15

GET /values?readout=log10 of Ki&item= CC(C(=O)NCc1ccc(C(C)(C)C)cc1OC1CCCCC1)c1ccc(NS(C)(=O)=O)c(F)c1 (centres unmarked) [Example 154]
0.23

GET /values?readout=log10 of Ki&item= Cc1ccc(Cl)cc1Nc1nc(C(F)(F)F)ccc1CNC(=O)C(C)c1ccc(NS(C)(=O)=O)c(F)c1 (centres unmarked) [Example 136]
0.92

GET /values?readout=log10 of Ki&item= CC(C(=O)NCc1ccc(C(F)(F)F)nc1-c1ccc(C(C)(C)C)cc1)c1ccc(NS(C)(=O)=O)c(F)c1 (centres unmarked) [Example 117]
-0.30

GET /values?readout=log10 of Ki&item= CC(C(=O)NCc1ccc(C(F)(F)F)nc1CCc1ccccc1)c1ccc(NS(C)(=O)=O)c(F)c1 (centres unmarked) [Example 192]
0.38

GET /values?readout=log10 of Ki&item= CC(C(=O)NCc1ccc(C(F)(F)F)nc1-c1cccc(F)c1)c1ccc(NS(C)(=O)=O)c(F)c1 (centres unmarked) [Example 148]
0.04

GET /values?readout=log10 of Ki&item= CC(C)COc1nc(C(F)(F)F)ccc1CNC(=O)C(C)c1ccc(NS(C)(=O)=O)c(F)c1 (centres unmarked) [Example 95]
-0.10

GET /values?readout=log10 of Ki&item= CCCCCOc1nc(C(F)(F)F)ccc1CNC(=O)C(C)c1ccc(NS(C)(=O)=O)c(F)c1 (centres unmarked) [Example 225]
-0.30

GET /values?readout=log10 of Ki&item= CC(C(=O)NCc1ccc(C(F)(F)F)nc1N1CCC(Cc2ccccc2)CC1)c1ccc(NS(C)(=O)=O)c(F)c1 (centres unmarked) [Example 104]
-0.70

GET /values?readout=log10 of Ki&item= CCCCN(C)c1nc(C(F)(F)F)ccc1CNC(=O)C(C)c1ccc(NS(C)(=O)=O)c(F)c1 (centres unmarked) [Example 167]
0.45

GET /values?readout=log10 of Ki&item= COC1CCN(c2nc(C(F)(F)F)ccc2CNC(=O)C(C)c2ccc(NS(C)(=O)=O)c(F)c2)CC1 (centres unmarked) [Example 159]
1.33

GET /values?readout=log10 of Ki&item= CC(C(=O)NCc1ccc(C(F)(F)F)nc1N1CCN(c2ncccc2Cl)CC1C)c1ccc(NS(C)(=O)=O)c(F)c1 (centres unmarked) [Example 194]
0.58

GET /values?readout=log10 of Ki&item= CC(C(=O)NCc1ccc(C(C)(C)C)cc1N1CCCCC1)c1ccc(NS(C)(=O)=O)c(F)c1 (centres unmarked) [Example 63]
1.38

GET /values?readout=log10 of Ki&item= CC(C(=O)NCc1ccc(C(F)(F)F)nc1N1CCN(c2ncccc2C(F)(F)F)CC1)c1ccc(NS(C)(=O)=O)c(F)c1 (centres unmarked) [Example 212]
0.56

GET /values?readout=log10 of Ki&item= CC(C(=O)NCc1ccc(C(F)(F)F)nc1NCc1ccc(Cl)cc1)c1ccc(NS(C)(=O)=O)c(F)c1 (centres unmarked) [Example 173]
1.89

GET /values?readout=log10 of Ki&item= Cc1cccc(N2CCN(c3cc(C(F)(F)F)ccc3CNC(=O)C(C)c3ccc(NS(C)(=O)=O)c(F)c3)CC2)c1 (centres unmarked) [Example 247]
-0.30

GET /values?readout=log10 of Ki&item= C[C@@H](C(=O)NCc1ccc(C(F)(F)F)cc1N1CCCCC1)c1ccc(NS(C)(=O)=O)c(F)c1 [Example 32]
0.41

GET /values?readout=log10 of Ki&item= CC1CCN(c2nc(C(F)(F)F)ccc2CNC(=O)C(C)c2ccc(NS(C)(=O)=O)cc2)CC1 (centres unmarked) [Example 262]
0.23

GET /values?readout=log10 of Ki&item= CC(C(=O)NCc1ccc(C(F)(F)Cl)nc1OC1CCCCC1)c1ccc(NS(C)(=O)=O)c(F)c1 (centres unmarked) [Example 168]
0.15

GET /values?readout=log10 of Ki&item= CCCOc1nc(C(F)(F)F)ccc1CNC(=O)C(C)c1ccc(NS(C)(=O)=O)c(F)c1 (centres unmarked) [Example 111]
0.54

GET /values?readout=log10 of Ki&item= CC(C(=O)NCc1ccc(C(F)(F)F)cc1N1CCC(Cc2ccccc2)CC1)c1ccc(NS(C)(=O)=O)c(F)c1 (centres unmarked) [Example 231]
-0.10

GET /values?readout=log10 of Ki&item= CCCCOC1CCN(c2nc(C(F)(F)F)ccc2CNC(=O)C(C)c2ccc(NS(C)(=O)=O)c(F)c2)CC1 (centres unmarked) [Example 160]
0.48

GET /values?readout=log10 of Ki&item= Cc1ccc(CCc2nc(C(F)(F)F)ccc2CNC(=O)C(C)c2ccc(NS(C)(=O)=O)c(F)c2)cc1 (centres unmarked) [Example 264]
-0.05

GET /values?readout=log10 of Ki&item= CC(C(=O)NCc1ccc(C(F)(F)F)nc1OCC1CC1C)c1ccc(NS(C)(=O)=O)c(F)c1 (centres unmarked) [Example 124]
-0.40

====

# measured-on: vanilloid receptor (VR1) (Homo sapiens, UniProt Q8NER1)
# Construct: expressed in transfected cells; host or cells: CHO K1 cells (ECACC), stably transfected
# Sequence (Q8NER1 whole entry): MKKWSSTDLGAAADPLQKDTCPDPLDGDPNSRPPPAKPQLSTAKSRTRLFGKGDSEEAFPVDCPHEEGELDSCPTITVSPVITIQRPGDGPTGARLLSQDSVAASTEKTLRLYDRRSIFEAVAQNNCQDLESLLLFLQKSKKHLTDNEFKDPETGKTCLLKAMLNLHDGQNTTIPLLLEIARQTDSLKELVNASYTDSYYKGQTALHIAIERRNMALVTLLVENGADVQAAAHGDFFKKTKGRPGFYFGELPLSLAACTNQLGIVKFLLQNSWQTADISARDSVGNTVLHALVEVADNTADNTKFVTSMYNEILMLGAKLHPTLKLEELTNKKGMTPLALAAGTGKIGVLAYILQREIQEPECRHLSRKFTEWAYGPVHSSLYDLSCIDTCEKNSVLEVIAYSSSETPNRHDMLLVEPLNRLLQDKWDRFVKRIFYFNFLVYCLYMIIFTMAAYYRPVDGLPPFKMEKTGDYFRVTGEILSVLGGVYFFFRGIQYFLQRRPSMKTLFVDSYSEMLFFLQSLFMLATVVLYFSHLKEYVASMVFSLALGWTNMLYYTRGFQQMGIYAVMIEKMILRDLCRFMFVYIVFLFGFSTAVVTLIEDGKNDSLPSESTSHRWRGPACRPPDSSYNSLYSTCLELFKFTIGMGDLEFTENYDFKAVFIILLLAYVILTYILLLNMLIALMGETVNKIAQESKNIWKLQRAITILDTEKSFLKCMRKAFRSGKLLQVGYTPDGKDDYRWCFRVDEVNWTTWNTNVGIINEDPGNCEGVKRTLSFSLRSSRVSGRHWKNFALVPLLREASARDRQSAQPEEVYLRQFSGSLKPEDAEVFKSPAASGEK
# measurement-description: FLIPR Ca2+ influx assay on CHO K1 cells transfected with the VR1 gene (pharmacological method II)
# Assay type: cell-based
# measurement-parameters: Table 2; displacement of capsaicin (100 nM), Cheng-Prusoff; read-out: Ki (human)
outcome-measure: Ki (nM)
The figure you give is taken to be in nM; do not add the unit.

GET /values?readout=Ki&item= CC(C(=O)NCc1ccc(C(F)(F)F)cc1N1CCCC1)c1ccc(NS(C)(=O)=O)c(F)c1 (centres unmarked)
2.3

GET /values?readout=Ki&item= C[C@H](C(=O)NCc1ccc(C(F)(F)F)nc1N1CCOCC1)c1ccc(NS(C)(=O)=O)c(F)c1
32.6

GET /values?readout=Ki&item= CC(C(=O)NCc1ccc(C(F)(F)Cl)nc1N1CCCCC1)c1ccc(NS(C)(=O)=O)c(F)c1 (centres unmarked)
1.3

GET /values?readout=Ki&item= Cc1nc(C(F)(F)F)ccc1CNC(=O)C(C)c1ccc(NS(C)(=O)=O)c(F)c1 (centres unmarked)
387

GET /values?readout=Ki&item= C[C@H](C(=O)NCc1ccc(C(F)(F)F)nc1N1CCCCC1)c1ccc(NS(C)(=O)=O)c(F)c1
0.3

GET /values?readout=Ki&item= C[C@H](C(=O)NCc1ccc(C(F)(F)F)cc1N1CCCCC1)c1ccc(NS(C)(=O)=O)c(F)c1
0.6

GET /values?readout=Ki&item= C[C@@H](C(=O)NCc1ccc(C(F)(F)F)nc1N1CCCCC1)c1ccc(NS(C)(=O)=O)c(F)c1
0.3

GET /values?readout=Ki&item= CC(C(=O)NCc1ccc(C(F)(F)F)nc1N1CCOCC1)c1ccc(NS(C)(=O)=O)c(F)c1 (centres unmarked)
1.3
